Data credit: patent EP4635958A1

System: GP2D
Test: Inhibition of proliferation of KRAS G12D mutant tumor cell line GP2D (CellTiter-Glo)
Conditions: Homo sapiens, GP2d, 72 h, read-out: GP2D IC50
metric: IC50

1. C#Cc1c(F)ccc2cc(O)cc(-c3nc4c5c(nc(OCC6(CN7CCC(=C(F)F)C7)CC6)nc5c3F)N3C[C@H]5CC[C@H](N5)[C@H]3[C@H](C)O4)c12 [Example 130]; 0.33 nM
2. [2H]C([2H])([2H])[C@@H]1Oc2nc(-c3cc(O)cc4ccc(F)c(C#C)c34)c(F)c3nc(OC([2H])([2H])C4(C([2H])([2H])N5CCC(=CF)CC5)CC4)nc(c23)N2C[C@H]3CC[C@H](N3)[C@@H]12 [Example 298]; 0.28 nM
3. C#Cc1c(F)ccc2cc(O)cc(-c3nc4c5c(nc(OCC6(CN7CCC(=CF)CC7C)CC6)nc5c3F)N3CC5CCC(N5)C3C(C)O4)c12 (centres unmarked) [Example 285]; 0.16 nM
4. C#Cc1c(F)ccc2cc(O)cc(-c3nc4c5c(nc(OCC6(CN7C8CCC7CC(=C(F)F)C8)CC6)nc5c3F)N3C[C@H]5CC[C@H](N5)[C@H]3[C@H](C)O4)c12 [Example 134]; 1 nM
5. C#Cc1c(F)ccc2cc(O)cc(-c3nc4c5c(nc(OCC6(CN7CCC(=C(F)F)CC7)CC6)nc5c3F)N3C[C@H]5CC[C@H](N5)[C@H]3[C@H](C)O4)c12 [Example 19-1]; 0.16 nM
